Value source: patent US7960349B2

# Mean EC50 (nM), stimulation of cAMP synthesis in CHO cells values compiled below
target: T1, Mouse GLP-1 Receptor (mouse, UniProt O35659 22-463)
T1 sequence (looked up): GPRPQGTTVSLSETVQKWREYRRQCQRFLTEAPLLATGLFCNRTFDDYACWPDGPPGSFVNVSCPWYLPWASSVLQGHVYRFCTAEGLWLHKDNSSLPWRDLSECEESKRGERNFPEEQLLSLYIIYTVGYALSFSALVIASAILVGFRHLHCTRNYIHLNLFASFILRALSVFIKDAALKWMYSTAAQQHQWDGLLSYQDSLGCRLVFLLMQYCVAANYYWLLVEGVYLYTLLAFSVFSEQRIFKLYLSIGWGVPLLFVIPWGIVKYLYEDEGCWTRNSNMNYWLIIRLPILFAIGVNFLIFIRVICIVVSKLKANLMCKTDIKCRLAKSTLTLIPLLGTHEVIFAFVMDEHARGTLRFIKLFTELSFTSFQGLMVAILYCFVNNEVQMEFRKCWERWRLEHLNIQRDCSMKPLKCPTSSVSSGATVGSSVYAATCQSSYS
method: cell-based or functional assay
*1 amine or outer side, *2 acyl side, *3 side chain or, on linkers, in order; H or OH if unused. Primed or numbered codes have the meaning given here. Where no end group is shown, it is not given here. [ ]: non-standard residue; d: D form. The star is where a group is joined. X1 = 4‑(2′-methylphenyl)‑3‑pyridylalanine, Cc1ccccc1-c1ccncc1C[C@H](N[*:1])C(=O)[*:2]; Bip(2′-Et-4′-OH-5′-I) = CCc1cc(O[*:3])c(I)cc1-c1ccc(C[C@H](N[*:1])C(=O)[*:2])cc1; Phe(4-(2-Et-4-HO-Ph)) = CCc1cc(O)ccc1-c1ccc(C[C@H](N)C(=O)O)cc1; IMeOp = 3-(1H-imidazol-4-yl)-2-methoxypropanoyl; αMePhe(2-F) = C[C@](N)(Cc1ccccc1F)C(=O)O; αMeP = C[C@@]1(C(=O)O)CCCN1; Moc = COC(=O)*
Note: state the figure and append the unit.

Sample [IMeOp][αMeP]EGT[αMePhe(2-F)]THD[Phe(4-(2-Et-4-HO-Ph))][X1]-NH2 (also: IMeOp configuration (S or R) not determined) [Compound of SEQ ID NO: 176 (or 175)*] — what was its Mean EC50 (nM), stimulation of cAMP synthesis in CHO cells?
0.126 nM

Likewise for [IMeOp][αMeP]EGT[αMePhe(2-F)]TSD[Phe(4-(2-Et-4-HO-Ph))][X1]-NH2 (also: IMeOp configuration (R or S) not determined) [Compound of SEQ ID NO: 173 (or 174)*] ?
0.114 nM

Likewise for [IMeOp][αMeP]EGT[αMePhe(2-F)]TSD[Phe(4-(2-Et-4-HO-Ph))][X1]-NH2 (also: IMeOp configuration (S or R) not determined) [Compound of SEQ ID NO: 174 (or 173)*] ?
0.273 nM

Likewise for Moc-H[αMeP]EGT[αMePhe(2-F)]TSD[Phe(4-(2-Et-4-HO-Ph))][X1]-NH2 [Compound of SEQ ID NO: 158] ?
0.191 nM

Likewise for Moc-H[αMeP]EGT[αMePhe(2-F)]TSD[Bip(2′-Et-4′-OH-5′-I)][X1]-NH2 [Compound of SEQ ID NO: 164] ?
0.055 nM

Likewise for [IMeOp][αMeP]EGT[αMePhe(2-F)]THD[Phe(4-(2-Et-4-HO-Ph))][X1]-NH2 (also: IMeOp configuration (R or S) not determined) [Compound of SEQ ID NO: 175 (or 176)*] ?
0.084 nM
